Biological target: UniProt P48736
Test: PI3Kγ assay (ADP-Glo Kinase Assay)
Type: biochemical
Details: recombinant enzyme; IC50 (nM) or max inhibition (%) at 0.5 μM
measured-endpoint: IC50 (nM)

>>> endpoint_result("Cc1nc([C@@H](C)c2cc(Cl)c(F)c(C(=O)NCCN(C)C)c2OC(C)C)n2ccnc(N)c12")
11000
>>> endpoint_result("Cc1nc([C@@H](C)c2cc(Cl)c(F)c(C(=O)NCC3(O)CC3)c2OC(C)C)n2ccnc(N)c12")
3400
>>> endpoint_result("COC[C@@H]1CCCN1C(=O)c1c(F)c(Cl)cc([C@H](C)c2nc(C)c3c(N)nccn23)c1OC(C)C")
14000

====

Molecular target: PI3K (p110γ) (Homo sapiens, UniProt P48736)
Sequence (P48736 whole entry): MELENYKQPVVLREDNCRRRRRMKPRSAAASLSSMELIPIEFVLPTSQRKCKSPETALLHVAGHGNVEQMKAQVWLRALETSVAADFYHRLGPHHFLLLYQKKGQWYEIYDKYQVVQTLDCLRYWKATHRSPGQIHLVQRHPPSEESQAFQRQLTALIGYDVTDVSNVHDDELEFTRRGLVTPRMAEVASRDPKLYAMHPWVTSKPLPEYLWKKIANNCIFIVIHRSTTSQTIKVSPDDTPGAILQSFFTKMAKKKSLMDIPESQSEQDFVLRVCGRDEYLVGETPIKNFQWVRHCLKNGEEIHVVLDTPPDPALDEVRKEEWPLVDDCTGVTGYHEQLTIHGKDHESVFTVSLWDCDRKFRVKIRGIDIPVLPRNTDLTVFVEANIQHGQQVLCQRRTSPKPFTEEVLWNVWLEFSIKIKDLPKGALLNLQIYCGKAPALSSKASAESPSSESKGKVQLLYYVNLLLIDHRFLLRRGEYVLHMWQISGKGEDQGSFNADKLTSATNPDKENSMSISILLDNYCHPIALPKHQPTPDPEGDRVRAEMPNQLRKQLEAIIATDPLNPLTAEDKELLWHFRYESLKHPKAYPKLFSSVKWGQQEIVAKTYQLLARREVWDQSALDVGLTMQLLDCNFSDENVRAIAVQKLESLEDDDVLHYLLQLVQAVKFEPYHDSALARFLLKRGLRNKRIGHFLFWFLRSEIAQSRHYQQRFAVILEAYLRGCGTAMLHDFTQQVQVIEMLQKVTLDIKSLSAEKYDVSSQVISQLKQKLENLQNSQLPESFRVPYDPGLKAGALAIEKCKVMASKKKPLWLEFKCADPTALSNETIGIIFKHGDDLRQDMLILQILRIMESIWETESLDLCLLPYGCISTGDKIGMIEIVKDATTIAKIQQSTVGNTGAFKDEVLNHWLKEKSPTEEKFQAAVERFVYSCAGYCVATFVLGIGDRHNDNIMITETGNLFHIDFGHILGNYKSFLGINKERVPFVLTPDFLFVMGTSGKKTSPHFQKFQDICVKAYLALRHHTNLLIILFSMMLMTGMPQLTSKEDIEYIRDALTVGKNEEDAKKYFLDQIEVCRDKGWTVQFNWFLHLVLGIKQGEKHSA
Experiment: PI3Kγ assay (ADP-Glo Kinase Assay)
Type: biochemical
Conditions: recombinant enzyme; IC50 (nM) or max inhibition (%) at 0.5 μM
Decide using IC50 alone. Strictly below 6000 nM: True. Equal to or above 6000 nM: False.

>>> label_class("Cc1nc([C@@H](C)c2cc(Cl)c(F)c(C(=O)Nc3ccc(F)cc3)c2OC(C)C)n2ccnc(N)c12")
"False"
>>> label_class("Cc1nc(C(C)c2cc(Cl)c(F)c(C(=O)NC3(C(=O)O)CC3)c2OC(C)C)n2ccnc(N)c12 (centres unmarked)")
"True"
>>> label_class("Cc1nc(C(C)c2cc(Cl)c(F)c(C(=O)NC[C@@H](C)O)c2OC(C)C)n2ccnc(N)c12 (some centres unmarked)")
"False"
>>> label_class("Cc1nc([C@@H](C)c2cc(Cl)c(F)c(C(=O)N[C@@H]3CC[C@@H](O)C3)c2OC(C)C)n2ccnc(N)c12")
"True"

====

Target: PI3K (p110β/p85α) (Homo sapiens)
Experiment: PI3Kβ assay (ADP-Glo Kinase Assay)
Assay type: biochemical
Settings: read-out: Enzyme activity IC50 PI3Kβ
pIC50: −log10 of the molar value.
Reported pIC50 values for the following compounds.
measured-endpoint: pIC50

>>> endpoint_result("Cc1nc([C@@H](C)c2cc(Cl)c(F)c(C(=O)NC3(CO)CC3)c2OC(C)C)n2ccnc(N)c12")
4.70
>>> endpoint_result("Cc1nc(C(C)c2cc(Cl)c(F)c(C(=O)N[C@H]3CC[C@@H](O)C3)c2OC(C)C)n2ccnc(N)c12 (single isomer, unassigned) [Compound 14A]")
4.89
>>> endpoint_result("Cc1nc([C@@H](C)c2cc(Cl)c(F)c(C(=O)N[C@H]3CC[C@H](O)CC3)c2OC(C)C)n2ccnc(N)c12")
4.46
>>> endpoint_result("COCCNC(=O)c1c(F)c(Cl)cc(C(C)c2nc(C)c3c(N)nccn23)c1OC(C)C (stereo not shown)")
4.80

====

Molecular target: PI3K (p110α/p85α) (Homo sapiens)
Sequence (P42336 whole entry, one chain of several): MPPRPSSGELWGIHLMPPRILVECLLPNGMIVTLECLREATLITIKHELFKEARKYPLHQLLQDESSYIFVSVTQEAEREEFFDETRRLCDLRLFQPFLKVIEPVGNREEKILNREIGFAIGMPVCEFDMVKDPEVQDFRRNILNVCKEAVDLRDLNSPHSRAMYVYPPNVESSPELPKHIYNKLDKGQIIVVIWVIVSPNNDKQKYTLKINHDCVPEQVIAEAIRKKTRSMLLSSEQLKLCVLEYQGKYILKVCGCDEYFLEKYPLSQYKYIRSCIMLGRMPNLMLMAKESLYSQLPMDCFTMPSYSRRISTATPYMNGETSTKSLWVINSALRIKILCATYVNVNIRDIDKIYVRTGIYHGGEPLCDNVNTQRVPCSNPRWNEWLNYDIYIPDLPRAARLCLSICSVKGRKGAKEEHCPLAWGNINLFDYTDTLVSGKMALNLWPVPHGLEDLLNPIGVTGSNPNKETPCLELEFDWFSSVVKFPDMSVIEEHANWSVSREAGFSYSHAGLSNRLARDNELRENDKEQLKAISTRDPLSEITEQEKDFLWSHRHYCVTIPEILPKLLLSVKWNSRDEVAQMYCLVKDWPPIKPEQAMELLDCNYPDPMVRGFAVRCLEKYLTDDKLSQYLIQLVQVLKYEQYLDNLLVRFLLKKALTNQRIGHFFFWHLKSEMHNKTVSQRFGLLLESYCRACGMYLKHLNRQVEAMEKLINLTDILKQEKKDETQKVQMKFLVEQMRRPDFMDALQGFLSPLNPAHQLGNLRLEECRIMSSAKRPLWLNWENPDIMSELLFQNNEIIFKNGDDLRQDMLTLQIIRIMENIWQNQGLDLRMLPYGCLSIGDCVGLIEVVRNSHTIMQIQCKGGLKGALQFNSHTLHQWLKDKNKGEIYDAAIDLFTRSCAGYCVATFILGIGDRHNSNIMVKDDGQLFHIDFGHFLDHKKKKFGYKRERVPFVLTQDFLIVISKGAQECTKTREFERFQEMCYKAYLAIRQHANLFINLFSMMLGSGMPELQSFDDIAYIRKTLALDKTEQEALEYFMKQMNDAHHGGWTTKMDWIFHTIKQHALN
Assay: PI3Kα assay (ADP-Glo Kinase Assay)
Format: biochemical
Conditions: recombinant enzyme; IC50 (nM) or max inhibition (%) at 0.5 μM
Decide using IC50 alone. Strictly below 20000 nM: MET. Equal to or above 20000 nM: NOT MET.

>>> label_class("Cc1nc(C(C)c2cc(Cl)c(F)c(C(=O)N3CC(C(=O)O)C3)c2OC(C)C)n2ccnc(N)c12 (centres unmarked) [Compound 1]")
"NOT MET"
>>> label_class("Cc1nc([C@@H](C)c2cc(Cl)c(F)c(C(=O)N3CCC4(CC3)COC4)c2OC(C)C)n2ccnc(N)c12 [Compound 64]")
"NOT MET"
>>> label_class("Cc1nc(C(C)c2cc(Cl)c(F)c(C(=O)NC3(CO)CC3)c2OC(C)C)n2ccnc(N)c12 (centres unmarked) [Compound 5]")
"NOT MET"
>>> label_class("COCCNC(=O)c1c(F)c(Cl)cc(C(C)c2nc(C)c3c(N)nccn23)c1OC(C)C (centres unmarked) [Compound 8]")
"NOT MET"
>>> label_class("Cc1nc(C(C)c2cc(Cl)c(F)c(C(=O)NCC3(O)CC3)c2OC(C)C)n2ccnc(N)c12 (centres unmarked) [Compound 10]")
"NOT MET"
>>> label_class("Cc1nc([C@@H](C)c2cc(Cl)c(F)c(C(=O)N[C@H]3CCC[C@H]3O)c2OC(C)C)n2ccnc(N)c12 [Compound 25]")
"NOT MET"
>>> label_class("Cc1nc([C@@H](C)c2cc(Cl)c(F)c(C(=O)NC[C@H]3CCCO3)c2OC(C)C)n2ccnc(N)c12 [Compound 31]")
"NOT MET"
>>> label_class("COC1CCN(C(=O)c2c(F)c(Cl)cc([C@H](C)c3nc(C)c4c(N)nccn34)c2OC(C)C)CC1 [Compound 19]")
"NOT MET"
>>> label_class("Cc1nc([C@@H](C)c2cc(Cl)c(F)c(C(=O)NCC3(O)COC3)c2OC(C)C)n2ccnc(N)c12 [Compound 55]")
"MET"
>>> label_class("Cc1nc([C@@H](C)c2cc(Cl)c(F)c(C(=O)NCCN3CCN(C)CC3)c2OC(C)C)n2ccnc(N)c12 [Compound 73]")
"MET"
>>> label_class("Cc1nc([C@@H](C)c2cc(Cl)c(F)c(C(=O)NC[C@H](C)O)c2OC(C)C)n2ccnc(N)c12 [Compound 57]")
"MET"
>>> label_class("Cc1nc([C@@H](C)c2cc(Cl)c(F)c(C(=O)NCCC3CCOCC3)c2OC(C)C)n2ccnc(N)c12 [Compound 26]")
"NOT MET"
>>> label_class("COc1ccc([C@@H](C)NC(=O)c2c(F)c(Cl)cc([C@H](C)c3nc(C)c4c(N)nccn34)c2OC(C)C)cc1 [Compound 36]")
"MET"

====

Target: PI3K (p110δ/p85α) (Homo sapiens)
Sequence (O00329 whole entry): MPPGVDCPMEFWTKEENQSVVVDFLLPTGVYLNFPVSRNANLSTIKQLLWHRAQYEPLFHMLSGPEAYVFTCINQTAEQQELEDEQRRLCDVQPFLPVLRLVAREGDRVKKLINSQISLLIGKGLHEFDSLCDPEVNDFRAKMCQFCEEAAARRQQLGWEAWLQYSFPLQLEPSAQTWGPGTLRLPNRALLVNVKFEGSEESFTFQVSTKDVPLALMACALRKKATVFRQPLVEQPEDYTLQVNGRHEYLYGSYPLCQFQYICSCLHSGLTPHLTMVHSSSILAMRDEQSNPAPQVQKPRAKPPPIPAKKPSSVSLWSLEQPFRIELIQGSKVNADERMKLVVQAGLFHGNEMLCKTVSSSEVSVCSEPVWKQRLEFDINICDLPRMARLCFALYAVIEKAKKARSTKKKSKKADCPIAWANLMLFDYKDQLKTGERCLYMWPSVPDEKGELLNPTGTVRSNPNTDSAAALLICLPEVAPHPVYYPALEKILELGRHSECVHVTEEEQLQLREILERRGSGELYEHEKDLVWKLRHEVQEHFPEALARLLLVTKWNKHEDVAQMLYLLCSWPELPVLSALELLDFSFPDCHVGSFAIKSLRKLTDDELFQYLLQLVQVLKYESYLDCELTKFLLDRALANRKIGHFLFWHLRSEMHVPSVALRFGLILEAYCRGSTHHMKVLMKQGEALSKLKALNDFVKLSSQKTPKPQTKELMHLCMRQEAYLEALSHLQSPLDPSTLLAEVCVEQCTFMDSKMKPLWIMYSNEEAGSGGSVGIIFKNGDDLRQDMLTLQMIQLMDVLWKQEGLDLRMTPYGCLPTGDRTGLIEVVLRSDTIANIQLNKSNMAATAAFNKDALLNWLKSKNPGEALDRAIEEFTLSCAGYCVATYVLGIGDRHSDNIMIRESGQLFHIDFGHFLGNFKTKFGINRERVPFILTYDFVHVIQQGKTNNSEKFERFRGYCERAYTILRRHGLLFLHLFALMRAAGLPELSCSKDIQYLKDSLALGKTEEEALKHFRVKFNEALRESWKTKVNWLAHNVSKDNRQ
Sequence (P27986 whole entry partner): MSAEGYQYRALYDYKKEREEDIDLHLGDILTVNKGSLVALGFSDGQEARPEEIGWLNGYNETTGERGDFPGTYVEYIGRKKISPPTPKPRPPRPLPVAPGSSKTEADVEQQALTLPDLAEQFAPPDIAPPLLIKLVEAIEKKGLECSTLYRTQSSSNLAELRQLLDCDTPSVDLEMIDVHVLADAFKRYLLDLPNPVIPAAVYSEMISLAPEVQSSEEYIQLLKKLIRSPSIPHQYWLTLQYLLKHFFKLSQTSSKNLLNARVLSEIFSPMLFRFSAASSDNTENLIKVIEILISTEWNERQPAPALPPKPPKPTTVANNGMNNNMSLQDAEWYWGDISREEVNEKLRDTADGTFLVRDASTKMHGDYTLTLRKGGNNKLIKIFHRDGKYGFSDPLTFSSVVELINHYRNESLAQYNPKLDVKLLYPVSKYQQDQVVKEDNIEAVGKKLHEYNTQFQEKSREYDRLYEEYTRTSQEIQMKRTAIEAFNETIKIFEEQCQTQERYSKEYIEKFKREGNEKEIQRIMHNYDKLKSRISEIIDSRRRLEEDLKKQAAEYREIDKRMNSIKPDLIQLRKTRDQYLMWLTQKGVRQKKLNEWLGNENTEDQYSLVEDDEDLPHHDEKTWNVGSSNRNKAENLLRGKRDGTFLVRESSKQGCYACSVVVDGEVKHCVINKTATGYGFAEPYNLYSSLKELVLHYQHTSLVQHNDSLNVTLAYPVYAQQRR
Assay: PI3Kδ assay (ADP-Glo Kinase Assay)
Type: biochemical
Details: recombinant enzyme; IC50 (nM) or max inhibition (%) at 0.5 μM
Experimental: Compounds disclosed herein were tested for inhibition of PI3Kδ kinase activity using commercial ADP-Glo™ Kinase Assay (Promega Corporation) and following the manufacture's instruction. […] After incubation for 1 hr at room temperature, kinase detection reagent was added to simultaneously convert ADP to ATP and allow the newly synthesized ATP to be measured using a luciferase/luciferin reaction. […]
Decide using IC50 alone. Strictly below 1 nM: rule met. Equal to or above 1 nM: rule not met.

>>> label_class("Cc1nc([C@@H](C)c2cc(Cl)c(F)c(C(=O)NC[C@H](C)O)c2OC(C)C)n2ccnc(N)c12 [Compound 57]")
"rule not met"
>>> label_class("Cc1nc([C@@H](C)c2cc(Cl)c(F)c(C(=O)N[C@H]3CCC[C@@H]3O)c2OC(C)C)n2ccnc(N)c12 [Compound 37]")
"rule met"
>>> label_class("Cc1nc([C@@H](C)c2cc(Cl)c(F)c(C(=O)N[C@]3(C)C[C@@H](O)C3)c2OC(C)C)n2ccnc(N)c12 [Compound 39]")
"rule met"
>>> label_class("Cc1nc([C@@H](C)c2cc(Cl)c(F)c(C(=O)N[C@H]3CCCC[C@@H]3O)c2OC(C)C)n2ccnc(N)c12 [Compound 46]")
"rule met"
>>> label_class("Cc1nc([C@@H](C)c2cc(Cl)c(F)c(C(=O)N3CCC[C@H](O)C3)c2OC(C)C)n2ccnc(N)c12 [Compound 20]")
"rule not met"
>>> label_class("Cc1nc(C(C)c2cc(Cl)c(F)c(C(=O)NC3CC3)c2OC(C)C)n2ccnc(N)c12 (stereo not drawn) [Compound 11]")
"rule not met"
>>> label_class("Cc1nc(C(C)c2cc(Cl)c(F)c(C(=O)N[C@H]3CC[C@@H](O)C3)c2OC(C)C)n2ccnc(N)c12 (single isomer, unassigned) [Compound 14A]")
"rule not met"
>>> label_class("Cc1nc([C@@H](C)c2cc(Cl)c(F)c(C(=O)NCc3ccccn3)c2OC(C)C)n2ccnc(N)c12 [Compound 33]")
"rule not met"
>>> label_class("Cc1nc([C@@H](C)c2cc(Cl)c(F)c(C(=O)Nc3ccc(F)cc3)c2OC(C)C)n2ccnc(N)c12 [Compound 18]")
"rule not met"

====

Reported IC50 values for the following molecules.
Target: PI3K (p110β/p85α) (Homo sapiens, UniProt P42338)
Sequence (P42338 whole entry, one chain of several): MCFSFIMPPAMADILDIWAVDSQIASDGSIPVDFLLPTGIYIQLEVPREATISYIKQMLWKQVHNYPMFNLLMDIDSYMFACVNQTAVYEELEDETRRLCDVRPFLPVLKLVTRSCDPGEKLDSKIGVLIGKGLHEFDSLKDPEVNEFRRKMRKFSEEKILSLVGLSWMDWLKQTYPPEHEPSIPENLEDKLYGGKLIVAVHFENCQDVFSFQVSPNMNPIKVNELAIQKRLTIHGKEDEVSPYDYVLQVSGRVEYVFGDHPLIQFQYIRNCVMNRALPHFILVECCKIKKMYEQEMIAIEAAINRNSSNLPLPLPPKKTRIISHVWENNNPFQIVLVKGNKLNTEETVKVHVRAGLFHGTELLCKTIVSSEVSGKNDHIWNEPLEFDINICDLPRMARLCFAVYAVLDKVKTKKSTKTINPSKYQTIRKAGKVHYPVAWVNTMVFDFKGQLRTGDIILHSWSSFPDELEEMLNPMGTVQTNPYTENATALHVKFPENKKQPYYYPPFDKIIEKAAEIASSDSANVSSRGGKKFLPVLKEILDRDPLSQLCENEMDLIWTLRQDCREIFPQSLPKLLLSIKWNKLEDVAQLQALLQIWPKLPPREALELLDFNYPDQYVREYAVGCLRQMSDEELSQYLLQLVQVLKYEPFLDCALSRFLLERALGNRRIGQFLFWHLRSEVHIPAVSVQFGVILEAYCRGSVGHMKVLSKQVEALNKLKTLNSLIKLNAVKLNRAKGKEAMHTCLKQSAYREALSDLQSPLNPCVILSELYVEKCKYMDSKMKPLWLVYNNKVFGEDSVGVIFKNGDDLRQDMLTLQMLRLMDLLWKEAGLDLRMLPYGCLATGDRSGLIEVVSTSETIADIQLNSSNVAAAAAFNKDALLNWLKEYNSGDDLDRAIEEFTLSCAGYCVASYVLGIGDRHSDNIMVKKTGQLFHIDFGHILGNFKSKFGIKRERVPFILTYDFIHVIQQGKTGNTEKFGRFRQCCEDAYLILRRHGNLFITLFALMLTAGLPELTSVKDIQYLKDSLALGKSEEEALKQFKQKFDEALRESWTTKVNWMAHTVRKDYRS
Experiment: PI3Kβ assay (ADP-Glo Kinase Assay)
Assay type: biochemical
Conditions: read-out: Enzyme activity IC50 PI3Kβ
measured-endpoint: IC50

>>> endpoint_result("Cc1nc(C(C)c2cc(Cl)c(F)c(C(=O)NC3(C(=O)O)CC3)c2OC(C)C)n2ccnc(N)c12 (stereo not drawn)")
"> 50 µM"
>>> endpoint_result("CCOCC1(NC(=O)c2c(F)c(Cl)cc([C@H](C)c3nc(C)c4c(N)nccn34)c2OC(C)C)CC1")
"> 50 µM"
>>> endpoint_result("CO[C@H]1CCN(C(=O)c2c(F)c(Cl)cc([C@H](C)c3nc(C)c4c(N)nccn34)c2OC(C)C)C1")
"> 50 µM"

Values were extracted from patent US11905294B2.
